Value source: patent US7501397B2

molecules and their reported IC50
- tgt: UniProtKB P49768
- assay name: cell-free γ-secretase assay using detergent-solubilized membranes from HeLa cells and a recombinant APP-based substrate
- Assay type: biochemical
- Set-up: detergent-solubilized membranes from HeLa cells; endogenous in cells; host or cells: HeLa cells (detergent-solubilized membranes)
- condition description: 50% inhibition of Aβ40 production; at least three independent experiments; read-out: Cell-free Assay IC50
Non-standard residues stand in square brackets, D forms with d. Residues, ends and D or L forms follow the SMILES beside them. *: point of attachment. Boc = CC(C)(C)OC(=O)*; Aib = CC(C)(N)C(=O)O; Bn = c1ccc(C*)cc1
Answer format: numeric, nM implied, no suffix.

Below, 3 molecules whose answers are already recorded.
- molecule: "CC[C@H](C)[C@H](NC(=O)[C@@H](NC(=O)[C@@H](NC(=O)C(C)(C)NC(=O)CNC(=O)OC(C)(C)C)C(C)C)C(C)C)C(=O)NC(C)(C)C(=O)N[C@H](C(=O)N[C@H](C(=O)NC(C)(C)C(=O)N[C@H](C(=O)N[C@H](C(=O)NC(C)(C)C(=O)OC)[C@@H](C)CC)C(C)C)C(C)C)[C@@H](C)OCc1ccccc1 [SEQ ID NO:17 L-peptide] (Boc-G[Aib]VVI[Aib]T(Bn)V[Aib]VI[Aib]-OMe)"
  endpoint unit: "nM"
  IC50: 360
- molecule: "CC[C@@H](C)[C@@H](NC(=O)[C@H](NC(=O)[C@H](NC(=O)C(C)(C)NC(=O)CNC(=O)[C@H](NC(=O)C(C)(C)NC(=O)[C@@H](CC(C)C)NC(=O)OC(C)(C)C)C(C)C)C(C)C)C(C)C)C(=O)NC(C)(C)C(=O)N[C@@H](C(=O)N[C@@H](C(=O)NC(C)(C)C(=O)N[C@@H](C(=O)N[C@@H](C(=O)NC(C)(C)C(=O)OC)[C@H](C)CC)C(C)C)C(C)C)[C@H](C)OCc1ccccc1 [SEQ ID NO:20 D-peptide] (Boc-[dL][Aib][dV]G[Aib][dV][dV][dI][Aib][dT](Bn)[dV][Aib][dV][dI][Aib]-OMe)"
  endpoint unit: "nM"
  IC50: 16
- molecule: "CC[C@@H](C)[C@@H](NC(=O)[C@H](NC(=O)[C@H](NC(=O)C(C)(C)NC(=O)OC(C)(C)C)C(C)C)C(C)C)C(=O)NC(C)(C)C(=O)N[C@@H](C(=O)N[C@@H](C(=O)NC(C)(C)C(=O)N[C@@H](C(=O)N[C@@H](C(=O)NC(C)(C)C(=O)OC)[C@H](C)CC)C(C)C)C(C)C)[C@H](C)OCc1ccccc1 [SEQ ID NO:16 D-peptide] (Boc-[Aib][dV][dV][dI][Aib][dT](Bn)[dV][Aib][dV][dI][Aib]-OMe)"
  endpoint unit: "nM"
  IC50: 28

# ---- query molecule ----
Which measured IC50 value corresponds to CC[C@@H](C)[C@@H](NC(=O)[C@H](NC(=O)[C@H](NC(=O)C(C)(C)NC(=O)CNC(=O)[C@H](NC(=O)C(C)(C)NC(=O)[C@@H](CC(C)C)NC(=O)CNC(=O)OC(C)(C)C)C(C)C)C(C)C)C(C)C)C(=O)NC(C)(C)C(=O)N[C@@H](C(=O)N[C@@H](C(=O)NC(C)(C)C(=O)N[C@@H](C(=O)N[C@@H](C(=O)NC(C)(C)C(=O)OC)[C@H](C)CC)C(C)C)C(C)C)[C@H](C)OCc1ccccc1 [SEQ ID NO:21 D-peptide] (Boc-G[dL][Aib][dV]G[Aib][dV][dV][dI][Aib][dT](Bn)[dV][Aib][dV][dI][Aib]-OMe) ?
26
